Just for reference, ChEMBL document CHEMBL1121799 is where these values come from.

- System: Canis familiaris
- assay.overview: Effective dose required for the maximum heart rate in anesthetized dogs.
- Type: functional
- experimental.context: Canis lupus familiaris
Please use true for ED50 under 0.02 µmol/kg and false for everything else, ties included.

compound: CC(C)C(=O)NCCNCC(O)COc1ccc(O)c(O)c1.O=C(O)C(=O)O (stereo not given)
label: true

compound: O=C(NCCNCC(O)c1ccc(O)cc1)Nc1ccccc1.O=C(O)C(=O)O (stereo not given)
label: false

compound: O=C(NCCNCC(O)c1cccc(O)c1)Nc1ccccc1.O=C(O)C(=O)O (stereo not given)
label: false

compound: COCCNC(=O)NCCNCC(O)COc1ccc(O)cc1.O=C(O)C(=O)O (stereo not given)
label: false

###

- Test system: Canis familiaris
- assay.overview: Effective dose required for the maximum heart rate in anesthetized dogs.
- Assay type: functional
- experimental.context: Canis lupus familiaris
measured.property: ED50 (µmol/kg)

molecule: CC(C)NCC(O)c1cccc(O)c1 (stereo not given)
recorded.measurement: 0.071
//
molecule: CC(C)C(=O)NCCNCC(O)COc1cccc(O)c1.O=C(O)C(=O)O (stereo not given)
recorded.measurement: 0.209
//
molecule: CC(C)C(=O)NCCNCC(O)COc1cc(O)cc(O)c1.O=C(O)C(=O)O (stereo not given)
recorded.measurement: 0.019
//
molecule: O=C(NCCNCC(O)COc1ccc(O)cc1)N1CCOCC1 (stereo not given)
recorded.measurement: 0.012
//
molecule: O=C(NCCNCC(O)COc1cccc(O)c1)Nc1ccccc1.O=C(O)C(=O)O (stereo not given)
recorded.measurement: 0.009
//
molecule: CCN(CC)C(=O)NCCNCC(O)COc1ccc(O)cc1.O=C(O)C(=O)O (stereo not given)
recorded.measurement: 0.037
//
molecule: O=C(NCCNCC(O)COc1ccc(O)cc1)Nc1ccccc1.O=C(O)C(=O)O (stereo not given)
recorded.measurement: 0.058
//
molecule: O=C(NCCNCC(O)c1cc(O)cc(O)c1)Nc1ccccc1.O=C(O)C(=O)O (stereo not given)
recorded.measurement: 0.755
//
molecule: CC(C)NCC(O)c1ccc(O)cc1 (stereo not given)
recorded.measurement: 0.01
//
molecule: O=C(Cc1ccccc1)NCCNCC(O)COc1ccc(O)cc1.O=C(O)C(=O)O (stereo not given)
recorded.measurement: 0.027
//
molecule: CC(C)C(=O)NCCNCC(O)c1cc(O)cc(O)c1.O=C(O)C(=O)O (stereo not given)
recorded.measurement: 0.035
//
molecule: COCCN(C)C(=O)NCCNCC(O)COc1ccc(O)cc1.O=C(O)C(=O)O (stereo not given)
recorded.measurement: 0.012
//
molecule: CC(C)NCC(O)c1cc(O)cc(O)c1 (stereo not given)
recorded.measurement: 0.014
//
molecule: O=C(NCCNCC(O)c1ccc(O)c(CO)c1)Nc1ccccc1.O=C(O)C(=O)O (stereo not given)
recorded.measurement: 0.038
//
molecule: CN(CCO)C(=O)NCCNCC(O)COc1ccc(O)cc1.Cl (stereo not given)
recorded.measurement: 0.037
//
molecule: O=C(O)C(=O)O.O=S(=O)(NCCNCC(O)COc1ccc(O)cc1)Nc1ccccc1 (stereo not given)
recorded.measurement: 0.018
//
molecule: CN(C)C(=O)NCCNCC(O)COc1ccc(O)cc1.O=C(O)C(=O)O (stereo not given)
recorded.measurement: 0.024
//
molecule: O=C(NCCNCC(O)COc1ccc(O)c(O)c1)Nc1ccccc1.O=C(O)C(=O)O (stereo not given)
recorded.measurement: 0.0041
//
molecule: CN(C)S(=O)(=O)NCCNCC(O)COc1ccc(O)cc1.O=C(O)C(=O)O (stereo not given)
recorded.measurement: 0.069
//
molecule: CC(C)C(=O)NCCNCC(O)c1ccc(O)c(O)c1.O=C(O)C(=O)O (stereo not given)
recorded.measurement: 0.0025
//
molecule: Cl.O=C(NCCNCC(O)COc1ccc(O)cc1)N(CCO)CCO (stereo not given)
recorded.measurement: 0.145
//
molecule: CC(C)C(=O)NCCNCC(O)COc1ccc(O)c(CO)c1.O=C(O)C(=O)O (stereo not given)
recorded.measurement: 0.043
//
molecule: O=C(NCCO)NCCNCC(O)COc1ccc(O)cc1.O=C(O)C(=O)O (stereo not given)
recorded.measurement: 0.077
//
molecule: CC(C)NCC(O)c1ccc(O)c(CO)c1 (stereo not given)
recorded.measurement: 0.222
//
molecule: CC(C)C(=O)NCCNCC(O)c1ccc(O)cc1.O=C(O)C(=O)O (stereo not given)
recorded.measurement: 0.056
//
molecule: O=C(NCCNCC(O)COc1cc(O)cc(O)c1)Nc1ccccc1.O=C(O)C(=O)O (stereo not given)
recorded.measurement: 0.041
//
molecule: CC(C)NC[C@H](O)COc1ccc(O)cc1
recorded.measurement: 0.031
//
molecule: CC(C)NCC(O)COc1ccc(O)c(O)c1.O=C(O)C(=O)O (stereo not given)
recorded.measurement: 0.0012
//
molecule: NC(=O)NCCNCC(O)COc1ccc(O)cc1 (stereo not given)
recorded.measurement: 0.078
//
molecule: CC(C)NCC(O)COc1ccc(O)c(CO)c1.O=C(O)C(=O)O (stereo not given)
recorded.measurement: 0.067
//
molecule: CC(C)C(=O)NCCNCC(O)c1ccc(O)c(CO)c1.O=C(O)C(=O)O (stereo not given)
recorded.measurement: 0.077
//
molecule: CC(C)NCC(O)COc1cccc(O)c1.O=C(O)C(=O)O (stereo not given)
recorded.measurement: 0.018
//
molecule: CC(C)NCC(O)COc1cc(O)cc(O)c1.O=C(O)C(=O)O (stereo not given)
recorded.measurement: 0.012
//
molecule: O=C(NCCNCC(O)c1ccc(O)c(O)c1)Nc1ccccc1.O=C(O)C(=O)O (stereo not given)
recorded.measurement: 0.0009
//
molecule: CC(C)C(=O)NCCNCC(O)c1cccc(O)c1.O=C(O)C(=O)O (stereo not given)
recorded.measurement: 0.038
//
molecule: CC(C)NC(=O)NCCNCC(O)COc1ccc(O)cc1.O=C(O)C(=O)O (stereo not given)
recorded.measurement: 0.235
//
molecule: O=C(O)C(=O)O.O=S(=O)(NCCNCC(O)COc1ccc(O)cc1)c1ccccc1 (stereo not given)
recorded.measurement: 0.074
//
molecule: Cl.O=C(NCCNCC(O)COc1ccc(O)cc1)NCc1ccccc1 (stereo not given)
recorded.measurement: 0.019
//
molecule: CC(C)NCC(O)c1ccc(O)c(O)c1 (stereo not given)
recorded.measurement: 0.0014
//
molecule: O=C(NCCNCC(O)COc1ccc(O)c(CO)c1)Nc1ccccc1.O=C(O)C(=O)O (stereo not given)
recorded.measurement: 0.045
